Assign inhibition in vivo at 30 mg/kg to each entry below.
Test system: KK-Ay mice
Assay: Weight gain-inhibiting action, hypoglycemic effect, insulin in blood plasma lowering action in KK-Ay mice
Type: in vivo
Settings: Mus musculus, 336 h; male KK-Ay mice, high fat diet, 30 mg/kg/day oral, 2 weeks; read-out: Weight gain-inhibiting action (30 mg/kg/day)
Reply with the number, then its unit.

The cases that follow already have their inhibition in vivo at 30 mg/kg on record.
>  <smiles notation>
Cc1cc(OCC(C)(C)C(=O)O)ncc1-c1cnc(-c2ncc(C(F)(F)F)[nH]2)cn1

>  <inhibition in vivo at 30 mg/kg>
75%

$$$$
>  <smiles notation>
Cc1cc(OCC2(C(=O)O)CCC2)ccc1-c1ccc(-c2ncc(C(F)(F)F)[nH]2)cn1

>  <inhibition in vivo at 30 mg/kg>
45%

$$$$
>  <smiles notation>
Cc1cc(OCC(C)(C)C(=O)O)ncc1-c1ccc(-c2ncc(C(F)(F)F)[nH]2)cn1

>  <inhibition in vivo at 30 mg/kg>
43%

$$$$
>  <smiles notation>
CC(C)(COc1ccc(-c2ccc(-c3ncc(C4CC(F)(F)C4)[nH]3)cn2)cc1)C(=O)O

>  <inhibition in vivo at 30 mg/kg>
39%

$$$$
>  <smiles notation>
Cc1cc(OCC(C)(C)C(=O)O)ncc1-c1ccc(-c2ncc(C(F)(F)F)[nH]2)nc1

>  <inhibition in vivo at 30 mg/kg>
90%

$$$$
>  <smiles notation>
Cc1cc(OCC(C)(C)C(=O)O)ncc1-c1ccc(-c2ncc(C3(C(F)(F)F)CC3)[nH]2)c(F)c1

>  <inhibition in vivo at 30 mg/kg>
113%

$$$$
>  <smiles notation>
CC(C)(COc1ccc(-c2ccc(-c3ncc(C(F)(F)F)[nH]3)cn2)cc1F)C(=O)O

>  <inhibition in vivo at 30 mg/kg>
49%

$$$$
>  <smiles notation>
CC(C)(COc1ccc(-c2ccc(-c3ncc(C(F)(F)F)[nH]3)nn2)cc1)C(=O)O

>  <inhibition in vivo at 30 mg/kg>
22%

$$$$
>  <smiles notation>
CC(C)Cc1cnc(-c2ccc(-c3ccc(OCC(C)(C)C(=O)O)cc3)nc2)[nH]1

>  <inhibition in vivo at 30 mg/kg>
44%

$$$$

Ask: Which measured inhibition in vivo at 30 mg/kg value corresponds to CC(C)(COc1cnc(-c2ccc(-c3nc(C(F)(F)F)c[nH]3)cc2)cn1)C(=O)O ?
Reply: 63%
